Test: folding stability dG unfold from trypsin proteolysis; higher = more stable
Measured folding stability dG unfold, listed per entry.
QUANTITY MEASURED: folding stability dG unfold (kcal/mol)

monomer_sequence="SAGGSAGGSAMPLEKVIKNLTSSGSVESLKEKLAKEYGVEKVEVTKDPNSDTYSAKVFLKKPSAGGSAGGSA [r18_275_JUSTAS]" quantity_measured="folding stability dG unfold" value=-0.147
monomer_sequence="SAGSTVEVLEERPLEDGSVLVRVRVDDAAPDGSPVAVVDVLVLPGGEAVMTFPDGTPVRLPLSELGLPPSAG [r5_137_JUSTAS]" quantity_measured="folding stability dG unfold" value=0.108
monomer_sequence="SAEMKIEKIEVKPLEEEPELVEITIKVKDPEKLKEALEKAGFTVEEVDEEEGKLTITMSREQLEKLLKASAG [r14_777_TrROS_Hall]" quantity_measured="folding stability dG unfold" value=1.85
monomer_sequence="SAGGSAGGSMYVVKIKLKVYGENGEEYYFELELEVPEDELGEIEIELPGENLEFEAEVEVLPGSAGGSAGGS [r12_354_TrMRF]" quantity_measured="folding stability dG unfold" value=2.63
monomer_sequence="SAGGSAGGSMPPLAPDETVTQTLPSPDGSEVLVTYTWVPGEGLVETKVTDPATGKTTSTKTPVPSAGGSAGG [r6_440_JUSTAS]" quantity_measured="folding stability dG unfold" value=0.0545
monomer_sequence="SAGGEKVKLRIYVYRRTVERDPATGELRERYELVEEIEIEVEPGETLEDILAKLKLPPGWRIVRVERESAGG [r13_716_TrROS_Hall]" quantity_measured="folding stability dG unfold" value=4.39
monomer_sequence="SAGGPPNYRIKIEYYPPNGMITVELPFDSPDELLDEIRELPGLPVEPDNDGTIIIMFPNHMIKIDIWKSAGG [r13_143_TrROS]" quantity_measured="folding stability dG unfold" value=2.18

----------
Assay: folding stability dG unfold from chymotrypsin proteolysis; higher = more stable
Decide by folding stability dG unfold: equal to or exceeding 2 kcal/mol means Yes, less means No.

monomer_sequence="SAGGGSMPASITTEVTETTTPDATVTKSTVYYPDTGKWLEETTTTGPTTTITTTKFPDGSTTVTTAASAGGS [r16_657_JUSTAS]" classification=No
monomer_sequence="SAGGSAGGSAGGSPILIPRPDDYVLVVRIEEPRPLPDGDLAPPRIDVRLMPREEVERLLSAGGSAGGSAGGS [r4_238_TrMRF]" classification=No
monomer_sequence="TPLTTSTTTVPPSEIATPVTFNAPLSPDTSVTITTYDSATGTTSPVFSTTSASVTLTDLPNVSTATVVVVSS [r1_224_JUSTAS]" classification=No
monomer_sequence="SAGGSAMVRLPDGTLVIDVKLPEDRPDAKVTVTVLEDGSPVGSVDVNTGKVTISVSPGVSVSITVESAGGSA [r15_180_JUSTAS]" classification=No
monomer_sequence="SAGGSAGGSAGGSGSTTPIPATGATLTTETLPDGSPLYTLTDPATGATTTYPPGAPVGLSAGGSAGGSAGGS [r4_158_JUSTAS]" classification=No
monomer_sequence="SAGGESIVIPVKTLEEAKKVAEEIKEKFEKLGYKVEIFEEPETGRIIVKVTKKDKGTVSTTIITFPVPSAGG [r13_641_JUSTAS]" classification=Yes
monomer_sequence="SAGGSAGGSAGGSMTITYDKENKTLTIKLPNGKKVLTVNLENMTPEQLKELAKKLGLEVSAGGSAGGSAGGS [r4_49_TrROS_Hall]" classification=Yes
